- test-system: human PDE4B1 (Homo sapiens (Human))
- Sequence (Q07343 whole entry): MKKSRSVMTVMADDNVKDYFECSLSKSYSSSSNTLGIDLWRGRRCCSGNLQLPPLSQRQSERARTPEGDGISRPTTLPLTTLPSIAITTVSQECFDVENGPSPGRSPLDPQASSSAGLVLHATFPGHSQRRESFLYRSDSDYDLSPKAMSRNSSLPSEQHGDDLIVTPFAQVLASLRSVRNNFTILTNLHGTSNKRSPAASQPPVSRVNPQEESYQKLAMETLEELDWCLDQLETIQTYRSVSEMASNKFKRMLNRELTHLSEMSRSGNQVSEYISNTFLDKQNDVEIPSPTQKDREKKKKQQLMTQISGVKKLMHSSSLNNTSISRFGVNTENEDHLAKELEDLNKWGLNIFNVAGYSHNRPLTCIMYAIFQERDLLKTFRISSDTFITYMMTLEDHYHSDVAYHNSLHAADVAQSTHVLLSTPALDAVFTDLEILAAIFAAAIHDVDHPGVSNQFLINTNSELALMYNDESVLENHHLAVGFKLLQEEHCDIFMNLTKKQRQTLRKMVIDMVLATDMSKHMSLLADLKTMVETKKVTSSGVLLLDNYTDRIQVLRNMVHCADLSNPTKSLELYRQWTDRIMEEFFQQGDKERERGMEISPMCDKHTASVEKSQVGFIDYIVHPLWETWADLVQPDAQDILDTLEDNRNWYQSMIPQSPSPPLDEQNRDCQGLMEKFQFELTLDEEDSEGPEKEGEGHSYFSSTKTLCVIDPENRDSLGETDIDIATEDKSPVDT
- assay-details: cAMP HTRF assay to determine the activity of hPDE4B1
- Assay type: biochemical
- condition-context: inhibition of PDE4B at a test substrate concentration of 3 μM
reported-metric: inhibition at 3 µM (%)

smiles_input=CCc1nc(-c2cncnc2)nc2c1ccn2-c1cccc(OCC(=O)N(C)C)c1 scale_unit=% measured_number=67
smiles_input=CCc1nc(-c2ccc3ncsc3c2)nc2c1ccn2-c1cccc(OCC(=O)N(C)C)c1 scale_unit=% measured_number=51
smiles_input=CCc1nc(-c2ccc(OC(F)F)cc2)nc2c1CCN2c1ccc(CC(=O)O)cc1 scale_unit=% measured_number=58
smiles_input=CCOc1ccc(-c2nc(CC)c3ccn(-c4cccc(OCC(=O)N(C)C)c4)c3n2)cc1 scale_unit=% measured_number=41
smiles_input=CCc1nc(-c2ccc3c(c2)OCO3)nc2c1ccn2-c1cccc(OCC(=O)N(C)C)c1 scale_unit=% measured_number=52
smiles_input=CCc1nc(-c2ccc(OC)c(F)c2)nc2c1ccn2-c1cccc(OCC(=O)N(C)C)c1 scale_unit=% measured_number=43

P. CCOc1ccc(-c2nc(CC)c3c(n2)N(c2ccc(CC(=O)O)cc2)CC3)cc1
Q. CCc1nc(-c2ccc3occc3c2)nc2c1CCN2c1ccc(CC(=O)O)cc1
Of P and Q , whose reported inhibition at 3 µM is the larger number? Lab note: record the label of whichever item you select.
Q

a. CCc1nc(-c2ccc3occc3c2)nc2c1CCN2c1ccc(C(=O)O)cc1
b. CCc1nc(-c2ccc(OC)c(Cl)c2)nc2c1ccn2-c1cccc(OCC(=O)N(C)C)c1
Compare a and b and name the one whose reported inhibition at 3 µM is smaller. Lab note: record the label of whichever item you select.
a
